Source of measurements: patent EP4483954A1

Biological target: Haspin (h) (Homo sapiens, UniProt Q8TF76)
Sequence (Q8TF76 1-798): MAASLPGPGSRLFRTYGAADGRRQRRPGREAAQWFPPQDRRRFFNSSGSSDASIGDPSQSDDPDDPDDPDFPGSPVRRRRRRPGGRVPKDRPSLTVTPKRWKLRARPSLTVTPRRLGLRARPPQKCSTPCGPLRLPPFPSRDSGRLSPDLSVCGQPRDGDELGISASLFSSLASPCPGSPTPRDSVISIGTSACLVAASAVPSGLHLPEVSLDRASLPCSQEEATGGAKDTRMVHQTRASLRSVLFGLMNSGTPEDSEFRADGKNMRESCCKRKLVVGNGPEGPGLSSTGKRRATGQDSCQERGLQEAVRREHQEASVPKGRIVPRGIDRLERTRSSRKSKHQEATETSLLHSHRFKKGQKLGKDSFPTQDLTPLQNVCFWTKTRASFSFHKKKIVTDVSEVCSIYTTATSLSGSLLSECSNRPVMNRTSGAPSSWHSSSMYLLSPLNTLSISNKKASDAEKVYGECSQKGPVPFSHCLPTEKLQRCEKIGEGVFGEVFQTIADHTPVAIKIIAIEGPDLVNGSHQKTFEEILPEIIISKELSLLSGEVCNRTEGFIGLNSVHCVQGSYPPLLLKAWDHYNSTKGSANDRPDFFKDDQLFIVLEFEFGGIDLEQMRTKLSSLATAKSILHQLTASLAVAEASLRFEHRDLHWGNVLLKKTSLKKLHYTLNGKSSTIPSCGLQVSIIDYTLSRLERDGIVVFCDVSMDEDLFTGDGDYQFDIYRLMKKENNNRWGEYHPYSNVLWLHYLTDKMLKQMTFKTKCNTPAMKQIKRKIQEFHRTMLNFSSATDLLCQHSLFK
Below, each of the molecules is paired with its reported IC50 value.

// below: answered molecules
| Smiles String | Observation Type | Readout Value |
| --- | --- | --- |
| Cn1cc(-c2ccc3scc(-c4ccncc4)c3n2)nn1 | IC50 | 500 to 3000 nM |
| Cn1cc(-c2ccc3scc(C4=CCNCC4)c3n2)cn1 | IC50 | 500 to 3000 nM |
| Cc1nsc(-c2csc3ccc(-c4cnn(C)c4)nc23)n1 | IC50 | 20 to 99 nM |
| Cn1cc(-c2ccc3scc(-c4cncs4)c3n2)cn1 | IC50 | 20 to 99 nM |

We next turn to a different molecule, shown below.
Ask | In one line, give reported IC50 of the entry c1ccc(Cn2ccc(-c3ccc4scc(-c5ccncc5)c4n3)n2)cc1 .
Reply | 500 to 3000 nM
